Biological target: His-tagged human recombinant DDR-2 kinase domain (His-TEV-DDR2 467-855 aa) (Homo sapiens)
Construct: His-TEV-DDR2 467-855 aa
Sequence (Q16832 467-855): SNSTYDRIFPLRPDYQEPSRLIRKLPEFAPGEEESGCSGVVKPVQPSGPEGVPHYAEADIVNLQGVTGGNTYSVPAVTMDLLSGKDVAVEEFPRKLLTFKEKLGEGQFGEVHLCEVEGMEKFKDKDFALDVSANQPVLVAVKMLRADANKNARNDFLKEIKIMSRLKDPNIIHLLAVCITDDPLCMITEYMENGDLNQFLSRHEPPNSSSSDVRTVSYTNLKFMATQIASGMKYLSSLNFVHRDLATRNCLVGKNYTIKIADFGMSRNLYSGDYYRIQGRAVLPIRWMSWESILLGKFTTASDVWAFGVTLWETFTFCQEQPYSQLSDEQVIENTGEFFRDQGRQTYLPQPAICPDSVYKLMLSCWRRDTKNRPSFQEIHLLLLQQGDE
Assay: Autophosphorylation assay for biochemical activity testing of DDR2 (HTRF)
Conditions: 4 nM DDR2 kinase domain, 150 μM ATP, 150 min at 22° C.
pIC50: −log10 of the molar value.
measured_endpoint: pIC50

Please review the entries below; each comes with its answer.
INSERT INTO results (smiles_text, test_target, val) VALUES
  ('Cc1cc(Oc2ccc(CNC(=O)Nc3cnc4ccccc4c3)cc2C)ccn1', 'His-tagged human recombinant DDR-2 kinase domain (His-TEV-DDR2 467-855 aa) (Homo sapiens)', 5.15),
  ('Cn1cc(C(F)(F)F)cc(NC(=O)NCc2ccc(Oc3ccncc3C(F)(F)F)cc2)c1=O', 'His-tagged human recombinant DDR-2 kinase domain (His-TEV-DDR2 467-855 aa) (Homo sapiens)', 5.80),
  ('Cn1cc(C(F)(F)F)cc(NC(=O)NCc2ccc(Oc3ccnc4[nH]ccc34)cc2)c1=O', 'His-tagged human recombinant DDR-2 kinase domain (His-TEV-DDR2 467-855 aa) (Homo sapiens)', 7.18);

I. CNC(=O)c1cc(Oc2ccc(CNC(=O)Nc3cc(C)cnc3OC)cc2C)ccn1
II. CNC(=O)c1cc(Oc2ccc(CNC(=O)Nc3cc(C)cnc3Cl)cc2)ccn1
III. COc1ncc(C)cc1NC(=O)NCc1ccc(Oc2ccnc(C)c2)c(C)c1
Ask | Could you please sort these 3 entries by pIC50 from high to low? Please reply with the labels ordered as requested. Many thanks.
Reply | I, III, II
